meta.source: patent US20260193326A1

Give measured kon for each item. Keep answers brief.
studySystem: T1, AAV5 (adeno-associated virus 5)
T1 construct: also called adeno-associated virus serotype 5
assayExplanation: SPR, AAV amine-coupled to CM5 chip;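 also: nanobodies flowed as analyte at seven concentrations spanning 1–100 nM over immobilized AAV (500–800 RU), kinetic constants derived by fitting the binding curves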
Answers are plain numbers, in M⁻¹ s⁻¹.

{"columns": ["binder", "kon [M⁻¹ s⁻¹]"],
 "data": [
  ["A4-087 (VHH) VHH: VQLQESGGGLVQPGGSLRLSCAASGSRFSLNTMGWYRQAPGKQRELVAAVTRGGNTNYGDFVKGRFTISRDNAKNTVYLQMNSLRPEDTAVYYCHVDELRESSWTTSNLWGQGTQVTVSS", 177000]
]}

Query binder follows.
Which measured kon value corresponds to A4-065 (VHH) VHH: VQLQESGGGLVQSGGSLRLSCAASGRNFSLNTVGWYRQAPGKQRELVATVTRGGSTNYAGSVKGRFTISRDNAKNTVYLQMNSLRPEDTAVYYCHVDEVRESSWTTSNLWGQGTQVTVSS ? 61900
